tested on: DU-145; experiment: Growth inhibition of human DU145 cells at 10 uM after 48 hrs by sulforhodamine B assay relative to control; format: functional; details: DU-145, 48 h, values are per cent of control
observed_property: growth, % of control at 10 µM

- COc1ccc(/C=C(/c2ccc([N+](=O)[O-])cc2)c2nnn[nH]2)c2ccccc12: 113%
- COc1ccc(/C=C(/c2cc(OC)c(OC)c(OC)c2)c2nnn[nH]2)cc1: 108%
- COc1ccc(/C=C(/c2cc(OC)c(OC)c(OC)c2)c2nnn[nH]2)cc1O: 3.41%
- COc1ccc(/C(=C/c2cc(OC)c(OC)c(OC)c2)c2nnn[nH]2)cc1OC: 106%
- COc1ccc(/C(=C/c2ccc3ccccc3c2)c2nnn[nH]2)cc1OC: 20.9%

----------
assay: Cytotoxicity against stromal cells (unknown origin) assessed as reduction in cell viability by alamar blue assay; assay type: cell-based; settings: read-out: LD50 (the source's name)
observed_property: CC50

• COc1ccc(/C(=C/c2ccc3ccccc3c2)c2nnn[nH]2)cc1OC = > 50 µM
• COc1ccc(/C=C(/c2cc(OC)c(OC)c(OC)c2)c2nnn[nH]2)cc1O = > 50 µM

----------
test system: A498; assay: Growth inhibition of human A498 cells at 10 uM after 48 hrs by sulforhodamine B assay relative to control; format: functional; conditions: A498, 48 h, values are per cent of control
observed_property: growth, % of control at 10 µM (%)

• COc1ccc(/C=C(/c2cc(OC)c(OC)c(OC)c2)c2nnn[nH]2)cc1O = -3.5
• COc1ccc(/C=C(/c2cc(OC)c(OC)c(OC)c2)c2nnn[nH]2)cc1 = 102
• COc1ccc(/C=C(/c2ccc([N+](=O)[O-])cc2)c2nnn[nH]2)c2ccccc12 = 112
• COc1ccc(/C(=C/c2ccc3ccccc3c2)c2nnn[nH]2)cc1OC = 14.5
• COc1ccc(/C(=C/c2cc(OC)c(OC)c(OC)c2)c2nnn[nH]2)cc1OC = 89.5
